Assay: Tertiary RLuc qRT-PCR qHTS assay for Zika virus inhibitors (AID 1347169); further: nearly all actives have a fitted effect of over 55% in size
Settings: infected Vero cells, reporter luminescence, 48-72 h; series mostly up to 45.9 µM
Description: Avindra Nath, Ph.D., National Institute of Neurological Disorders and Stroke (NINDS), Bethesda, MD Radhakrishnan Padmanabhan, Ph.D., Georgetown University (GU), Washington D.C. […] For a follow-up assay, we adapted a high throughput orthogonal assay in 1536-well plate format to use the recombinant virus ZIKV-RLuc, in Vero cells. […] The luminescence signal was measured after 1-1.5 hrs exposure to substrate in ViewLux reader.
Inconclusive results are not listed. Activity calls are given as the source filed them. The call rests on the fitted dose curve; in most records, active means well fitted inhibition curve with a large enough effect; inconclusive means small, poorly fitted or top-dose-only effect; inactive means no such curve, though single readings can be large or run the other way.
Outcome codes: active, inactive

| smiles.representation | group.label |
| --- | --- |
| O=C1NC(=O)/C(=C/c2ccc3c(c2)OC(F)(F)O3)S1 | active |
| CCC(=O)O[C@H]1[C@H](O[C@@H]2[C@@H](C)[C@H](O[C@H]3C[C@@](C)(OC)[C@@H](O)[C@H](C)O3)[C@@H](C)C(=O)O[C@H](CC)[C@@](C)(O)[C@H](O)[C@@H](C)C(=O)[C@H](C)C[C@@]2(C)O)O[C@H](C)C[C@@H]1N(C)C | inactive |
| O=[N+]([O-])c1ccc(-c2nc(-c3ccc(F)cc3)c(-c3ccncc3)[nH]2)cc1 | active |
| O=C(COCCOCCOCC(=O)Nc1c(I)cc(I)c(C(=O)O)c1I)Nc1c(I)cc(I)c(C(=O)O)c1I | inactive |
| COc1c(C)c2c(c(O)c1C/C=C(\C)CCC(=O)OCCN1CCOCC1)C(=O)OC2 | active |
